Target: T1, prolyl isomerase PPIA (human, UniProt P62937 2-164)
T1 construct: human PPIA (peptidyl-prolyl cis-trans isomerase A, cyclophilin A); gene cloned into a modified pET28a vector; 15N-labeled for the NMR titrations, unlabeled for ITC, crystallography and folding assays; source: E. coli BL21(DE3), purified (Ni-NTA, TEV cleavage, Superdex 75); 15N-labeled in M9 minimal media for NMR
T1 sequence (P62937 2-164): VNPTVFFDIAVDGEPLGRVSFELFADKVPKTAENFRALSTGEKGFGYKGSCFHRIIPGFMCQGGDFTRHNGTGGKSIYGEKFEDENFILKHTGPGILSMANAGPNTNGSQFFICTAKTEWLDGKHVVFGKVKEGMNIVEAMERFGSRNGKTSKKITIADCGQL
Assay: NMR titration; 40 µM 15N-labeled PPIA titrated with repeat polymer from 0 to 320 µM in five steps; 1H-15N HSQC at 298 K; 25 mM HEPES, 100 mM NaCl, 2 mM DTT, pH 7.4; Kd from the attenuation of the cross-peak of Arg55 (equation for slow exchange)
Settings: both partners purified
ENDPOINT_LABEL: Kd

- BINDER: "Ac-PRPRPRPRPRPRPRPRPRPRPRPRPRPRPRPRPRPRPRPR-NH2 (dipeptide repeat polymer translated from the C9orf72 hexanucleotide repeat expansion; Only eight residues of the polymer could be built in the asymmetric unit of PDB 7ABT; also called 20-dipeptide polymer PR20; 20-repeat PR polymer; source: synthetic peptide (solid-phase peptide synthesis)) [PR repeat polymer with 20 repeats (PR20)]"
  Kd: "23 µM"

What measured Kd goes with Ac-PRPRPRPRPRPRPRPRPRPR-NH2 (source: synthetic peptide (solid-phase peptide synthesis)) [PR repeat polymer with ten PR dipeptides (PR10)] ?
27 µM

How about this binder: Ac-PRPRPRPRPR-NH2 (source: synthetic peptide (solid-phase peptide synthesis)) [PR repeat polymer with five PR dipeptides (PR5)]
49 µM
